Let's look at some compounds and their measured melting point.
readout: melting point

compound=Sc1nnc2n(-c3ccccc3)c(-c3ccccc3)nn12 obsvalue="237 to 239 °C"
compound=COc1nc(C)cc(Cl)n1 obsvalue="59 to 61 °C"
compound=Cc1cc(Br)c(N)cc1[N+](=O)[O-] obsvalue="115 to 117 °C"
compound=NC(=O)c1cccc(CO)c1 obsvalue="113 to 115 °C"
compound=O=[N+]([O-])c1ccc(N2CCNCC2)nc1 obsvalue="128 to 130 °C"
compound=COc1cc2c(cc1C(=O)CCl)C(=O)CO2 obsvalue="176 to 178 °C"
compound=CCOC(=O)CCc1nc(CC(=O)NC)no1 obsvalue="84 to 86 °C"
compound=CNC(=S)NCCN1CCOCC1 obsvalue="103 to 105 °C"
compound=Cc1cc(C(=O)O)c(C)n1Cc1ccccn1 obsvalue="151 to 153 °C"
compound=Nc1ccnc(-c2ccccc2)c1 obsvalue="126 to 128 °C"
compound=Cc1nn(C)c(C(=O)O)c1[N+](=O)[O-] obsvalue="146 to 148 °C"
compound=CCOc1ccc(F)c(C(=O)O)c1F obsvalue="149 to 151 °C"
compound=N#Cc1ccc(OCC2CC2)nc1 obsvalue="53 to 55 °C"
compound=O=C(O)c1cc(Cl)n[nH]c1=O obsvalue="212 to 214 °C"
compound=Cn1cnnc1-c1ccccc1N obsvalue="133 to 135 °C"
compound=NNc1ccc([N+](=O)[O-])cc1Cl obsvalue="145 to 147 °C"
compound="CS(=O)(=O)CCC1NC(=O)NC1=O (configuration not stated)" obsvalue="160 to 162 °C"
compound=Cc1cc(=O)n2nc(CCl)sc2n1 obsvalue="183 to 185 °C"
compound=CN(C1CCCCC1)S(=O)(=O)c1ccccc1N obsvalue="98 to 101 °C"
compound=CC(C)(C)C1(C)OC(=O)CC(=O)O1 obsvalue="72 to 74 °C"
compound=O=C(O)c1cccc(S(=O)(=O)N2CCCCCC2)c1 obsvalue="173 to 175 °C"
compound="c1cnnc(NCC2CNCCO2)c1 (configuration not stated)" obsvalue="148 to 150 °C"
compound=N#Cc1ccc(F)c(CN2CCCC2=O)c1 obsvalue="92 to 94 °C"
compound=COc1ccc(CNC(=O)c2c[nH]nc2N)cc1 obsvalue="196 to 198 °C"
compound=O=C1CCCc2sccc21 obsvalue="38 to 40 °C"
compound=Cc1n[nH]c(C)c1S(=O)(=O)Cl obsvalue="60 to 65 °C"
compound=C=CCN=c1nn[nH]n1C obsvalue="66 to 68 °C"
compound="CC(SC1=NS(=O)(=O)c2ccccc21)C(=O)O (configuration not stated)" obsvalue="182 to 184 °C"
compound=CC(C)Nc1ccc(Br)cc1[N+](=O)[O-] obsvalue="97 to 99 °C"
compound=COc1ccc2c(-c3ccccc3)cc(Cl)nc2c1 obsvalue="100 to 102 °C"
compound=NS(=O)(=O)c1cc(C(=O)O)co1 obsvalue="176 to 178 °C"
compound=Cc1ccc(NC(=O)CC#N)cc1 obsvalue="188 to 190 °C"

###

Let's look at some molecules and their measured melting point.
readout: melting point

molecule="Cc1noc(C)c1C(C)CC(=O)O (stereo not drawn)" readout="melting point" obsvalue="95 to 97 °C"
molecule=CCNC(=O)c1ccc(O)cc1 readout="melting point" obsvalue="109 to 111 °C"
molecule=O=C(O)c1cn(-c2ccccc2)nc1-c1ccncc1 readout="melting point" obsvalue="235 to 237 °C"
molecule=Cn1cnc2cc(C(=O)O)cnc21 readout="melting point" obsvalue="284 to 286 °C"
molecule=Brc1cnn(-c2cccnc2)c1 readout="melting point" obsvalue="126 to 128 °C"
molecule=C#Cc1cccc(NC(N)=O)c1 readout="melting point" obsvalue="153 to 155 °C"
molecule=COc1ccc(N)cc1S(=O)(=O)N1CCCCC1 readout="melting point" obsvalue="93 to 95 °C"
molecule=O=C(CCl)Nc1cc(S(=O)(=O)N2CCOCC2)ccc1Cl readout="melting point" obsvalue="131 to 133 °C"
molecule=CNC(=O)Cc1ccc(N)cc1 readout="melting point" obsvalue="84 to 86 °C"
molecule=O=C(O)c1cc(=O)n(-c2ccccc2)[nH]1 readout="melting point" obsvalue="256 to 258 °C"
molecule=CCc1sc(N)nc1-c1ccc(OC)cc1 readout="melting point" obsvalue="112 to 114 °C"
molecule=N#Cc1sc(-c2cccc(Cl)c2)cc1N readout="melting point" obsvalue="190 to 192 °C"
molecule=O=C(O)CCC(=O)N1CCN(S(=O)(=O)c2ccccc2)CC1 readout="melting point" obsvalue="155 to 157 °C"
molecule=Nc1cc(-c2ccc(F)cc2F)no1 readout="melting point" obsvalue="110 to 112 °C"
molecule=CCNS(=O)(=O)c1ccc(Br)c(C)c1 readout="melting point" obsvalue="91 to 93 °C"
molecule=Cc1c(C(=O)O)cc([N+](=O)[O-])c(C)c1[N+](=O)[O-] readout="melting point" obsvalue="201 to 203 °C"
molecule=O=C(O)c1ccc(Br)cc1I readout="melting point" obsvalue="170 to 172 °C"
molecule=CC(C)CNc1nc(-c2ccccc2[N+](=O)[O-])cs1 readout="melting point" obsvalue="86 to 88 °C"
molecule=NC(=O)Cc1cccc(C(F)(F)F)c1 readout="melting point" obsvalue="106 to 108 °C"
molecule=Cc1cc(C(=O)O)nn1C(C)(C)C readout="melting point" obsvalue="143 to 145 °C"
molecule=O=C(O)c1cc2c(s1)CCCC2 readout="melting point" obsvalue="179 to 181 °C"
molecule=N#Cc1csc(C=O)c1 readout="melting point" obsvalue="84 to 86 °C"
molecule=CC(C)N(C)S(=O)(=O)c1ccc(C(=O)O)cc1 readout="melting point" obsvalue="176 to 178 °C"
molecule="CC(CCOc1ccccc1)C(=O)O (stereo not drawn)" readout="melting point" obsvalue="76 to 78 °C"
molecule=Oc1ccc(Oc2ccccn2)cc1 readout="melting point" obsvalue="142 to 144 °C"
molecule=C#Cc1c(F)cccc1F readout="melting point" obsvalue="34 to 36 °C"
molecule=Cc1nc2ccc(Cl)cc2cc1C(=O)O readout="melting point" obsvalue="218 to 220 °C"
molecule=NCc1ccccc1-c1ccc(CN2CCCC2=O)cc1 readout="melting point" obsvalue="82 to 84 °C"
molecule=O=C(O)c1ccc(OCc2ccccc2)nc1 readout="melting point" obsvalue="168 to 170 °C"
molecule=O=C1NC(=O)c2cc(S(=O)(=O)Cl)ccc21 readout="melting point" obsvalue="163 to 165 °C"
molecule=COc1ccc(C(=O)CCl)c(OC)c1 readout="melting point" obsvalue="48 to 50 °C"
molecule=CN(C)C(=O)Nc1ccc(C(=O)O)c(Cl)c1 readout="melting point" obsvalue="191 to 193 °C"
molecule=O=C(c1ccc(Cl)cc1)N1CCNCC1 readout="melting point" obsvalue="80 to 82 °C"
molecule=NS(=O)(=O)c1cccc(O)c1 readout="melting point" obsvalue="159 to 161 °C"
molecule=CC(=O)c1cccc(S(=O)(=O)N2CCC(C(=O)O)CC2)c1 readout="melting point" obsvalue="122 to 124 °C"
molecule="O=C(O)C1CCCN(C(=O)c2cccc3ccccc23)C1 (stereo not drawn)" readout="melting point" obsvalue="255 to 257 °C"
molecule=Oc1ccccc1Oc1ccccn1 readout="melting point" obsvalue="110 to 112 °C"
molecule=Cc1cc(Br)c2c(c1)C(=O)C(=O)N2 readout="melting point" obsvalue="178 to 180 °C"
molecule="CC(C)(C)OC(=O)N1CCC(O)(Cc2cccc(Cl)c2)C1 (stereo not drawn)" readout="melting point" obsvalue="109 to 111 °C"
molecule=O=C(O)Cn1c(=O)[nH]c2ccccc21 readout="melting point" obsvalue="247 to 249 °C"
molecule=CCOc1ccc(CO)cc1OCC readout="melting point" obsvalue="37 to 39 °C"
molecule=CCOc1ccc(Nc2ncccc2C(=O)O)cc1 readout="melting point" obsvalue="189 to 191 °C"
molecule=O=C(NC1CC1)C1CCNCC1 readout="melting point" obsvalue="135 to 137 °C"

###

readout: melting point

molecule=O=C(O)c1nc(-c2ccccc2)oc1C1CC1 obsvalue="198 to 200 °C"
molecule=NC(=O)c1ccc(N)cc1N1CCCCC1 obsvalue="142 to 144 °C"
molecule=Cc1nn(-c2ccc(F)cc2)c(Cl)c1C(=O)O obsvalue="253 to 255 °C"
molecule="CC(C)(C)OC(=O)N1CCCCC1(C)C(=O)O (stereo not given)" obsvalue="92 to 94 °C"
molecule=CN(C)C1=CC(=C(N)N=O)C=CN1 obsvalue="129 to 131 °C"
molecule=Nc1cc(S(=O)(=O)NCCCN2CCOCC2)ccc1Cl obsvalue="< 17 °C"
molecule="CCOC(C)C(N)=S (stereo not given)" obsvalue="54 to 56 °C"
molecule="CC1CCc2c(sc3nc(CCC(=O)O)[nH]c(=O)c23)C1 (stereo not given)" obsvalue="259 to 261 °C"
molecule=O=C(O)c1cc(F)c(F)cc1Br obsvalue="118 to 122 °C"
molecule="O=C(O)C1CCCN(C(=O)NC2CCCC2)C1 (stereo not given)" obsvalue="167 to 169 °C"
molecule=O=[N+]([O-])c1ccc(Cl)c(S(=O)(=O)N2CCCC2)c1 obsvalue="114 to 116 °C"
molecule="CCOC(=O)C(NC(=O)c1ccc(Cl)c(Cl)c1)C(C)O (stereo not given)" obsvalue="68 to 70 °C"
molecule=CCN(CC)Cc1nc(Cl)c2c(C)c(C)sc2n1 obsvalue="30 to 32 °C"
molecule=Nc1cc(C(=O)N2CCCC2)ccc1Cl obsvalue="137 to 139 °C"
molecule=Nc1cccc(NS(N)(=O)=O)c1 obsvalue="75 to 81 °C"
